Values were extracted from patent US12491255.

assayed.system: T1, human EpCAM on COLO-205 cells (human, UniProt P16422 24-314)
T1 construct: whole, on cells; Endogenous EpCAM of the EpCAM-positive cell line COLO-205; also called epithelial cell adhesion molecule; Colo205 (EpCAM+)
T1 sequence (looked up): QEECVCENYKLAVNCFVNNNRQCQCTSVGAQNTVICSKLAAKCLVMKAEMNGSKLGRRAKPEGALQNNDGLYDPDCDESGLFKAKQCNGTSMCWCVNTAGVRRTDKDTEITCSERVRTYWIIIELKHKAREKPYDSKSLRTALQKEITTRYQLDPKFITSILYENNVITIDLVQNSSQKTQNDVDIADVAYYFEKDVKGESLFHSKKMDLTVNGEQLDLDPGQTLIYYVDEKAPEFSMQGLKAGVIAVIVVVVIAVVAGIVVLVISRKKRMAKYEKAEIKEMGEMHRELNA
test.method.notes: flow cytometry, periplasmic extract of soluble Centyrin on COLO-205 (EpCAM+) cells
Description: Three rounds of CIS display panning on recombinant huEpCAM protein (R&D Systems) were performed using TCL23 as described previously. The output from Round 3 was amplified and cloned into phagemid vector containing truncated pIII. […] Phage binding was assessed using a labeled anti-M13 antibody. […] Soluble Centyrins were expressed, recovered from periplasmic extracts and assessed for binding to Colo205 (EpCAM+) and A375 (EpCAM-) (Table 4).
measured.property: Mean BL-1 P.E. COLO-205

These recorded examples may help you get a feel for the data.
EpCAM binding FN3 domain clone 1807 (designed binder, not shown: No entry is named H9) MLPAPKNLVVSRVTEDSARLSWTAPDAAFDSFYIRYYEGSGYGEAIVLTVPGSERSYDLTGLKPGTEYYVYIGGVKGGSPSSPLSAIFTTG    12900
EpCAM binding FN3 domain clone 680 (designed binder, not shown: No entry is named H9) MLPAPKNLVVSRVTEDSARLSWTAPYAAFDSFAISYRERSREGEVIALTVPGSERSYDLTGLKPGTEYIVGILGVKGGRRSKPLRAQFTT    10400

Reported Mean BL-1 P.E. COLO-205 of EpCAM binding FN3 domain clone 1420 (designed binder, not shown: No entry is named H9) MLPAPKNLVVSRVTEDSARLSWEGYRNNAHFDSFLIQYQESEKVGEAIVLTVPGSERSYDLTGLKPGTEYTVSIYGVVAAVPRNYYSNPLSAIFTT : 22600
